The reported numbers originate from ChEMBL document CHEMBL4382196.

Test system: RPMI-8226
run-description: cells
run-parameters: Homo sapiens, RPMI-8226, 72 h
Consider the cut-off 500 nM. If the recorded EC50 is strictly smaller, the label is MET; if not, the label is NOT MET.

Answered examples (2):
chemical-smiles: COc1ccc(NC(=O)c2cccc(-c3nc(NC(P(=O)(O)O)P(=O)(O)O)c4ccsc4n3)c2)cc1
qualitative-label: MET
--
chemical-smiles: O=P(O)(O)C(Nc1ncnc2sc(-c3ccc(C(F)(F)F)cc3)cc12)P(=O)(O)O
qualitative-label: NOT MET

# TODO verify EC50 < 500 nM strictly for this compound: `O=C(Nc1ccccc1)c1cccc(-c2nc(NC(P(=O)(O)O)P(=O)(O)O)c3ccsc3n2)c1`
MET

# TODO verify EC50 < 500 nM strictly for this compound: `Cc1ccc(C(=O)Nc2cccc(-c3nc(NC(P(=O)(O)O)P(=O)(O)O)c4ccsc4n3)c2)cc1`
NOT MET

# TODO verify EC50 < 500 nM strictly for this compound: `O=P(O)(O)C(O)(Cc1ccccn1)P(=O)(O)O`
NOT MET

* * *

run-description: Toxicity in Vk*MYC transgenic mouse model assessed as weight loss at 3 mg/kg/day, ip administered over 14 days and measured at 4 hrs post last dose (reference value: 10 to 16%)
Assay type: organism-based
run-parameters: in vivo
reported-endpoint: Activity

Recorded Activity of `COc1ccc(NC(=O)c2cccc(-c3nc(NC(P(=O)(O)O)P(=O)(O)O)c4ccsc4n3)c2)cc1F` , please.
15 to 28%

* * *

For each record, write down the corresponding pIC50.
target-or-test-system: Farnesyl pyrophosphate synthase (Homo sapiens, UniProt P14324)
Sequence (P14324 whole entry): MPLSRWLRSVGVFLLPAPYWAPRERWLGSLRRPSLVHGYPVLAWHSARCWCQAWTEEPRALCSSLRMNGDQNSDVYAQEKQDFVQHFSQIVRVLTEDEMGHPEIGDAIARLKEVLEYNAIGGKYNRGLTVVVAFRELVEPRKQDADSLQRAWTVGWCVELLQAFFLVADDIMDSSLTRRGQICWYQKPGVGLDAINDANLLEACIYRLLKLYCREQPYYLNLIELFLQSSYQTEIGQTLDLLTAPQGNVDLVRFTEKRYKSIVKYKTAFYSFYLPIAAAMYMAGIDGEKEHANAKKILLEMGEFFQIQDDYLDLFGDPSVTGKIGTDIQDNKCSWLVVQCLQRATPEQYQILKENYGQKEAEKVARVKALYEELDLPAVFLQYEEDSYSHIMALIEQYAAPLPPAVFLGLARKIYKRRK
Numbers only, as −log10 of the molar value.

Provide reported pIC50 for each item, in the same order as listed.
1. COc1ccc(NC(=O)c2cccc(-c3nc(NC(P(=O)(O)O)P(=O)(O)O)c4ccsc4n3)c2)cc1
2. COc1ccc(NC(=O)c2cccc(-c3nc(NC(P(=O)(O)O)P(=O)(O)O)c4ccsc4n3)c2)cc1F
3. O=P(O)(O)C(Nc1ncnc2sccc12)P(=O)(O)O

1: 5.89; 2: 5.85; 3: 6.10

* * *

For each record, write down the corresponding IC50.
target-or-test-system: Geranylgeranyl pyrophosphate synthase (Homo sapiens, UniProt O95749)
Sequence (O95749 whole entry): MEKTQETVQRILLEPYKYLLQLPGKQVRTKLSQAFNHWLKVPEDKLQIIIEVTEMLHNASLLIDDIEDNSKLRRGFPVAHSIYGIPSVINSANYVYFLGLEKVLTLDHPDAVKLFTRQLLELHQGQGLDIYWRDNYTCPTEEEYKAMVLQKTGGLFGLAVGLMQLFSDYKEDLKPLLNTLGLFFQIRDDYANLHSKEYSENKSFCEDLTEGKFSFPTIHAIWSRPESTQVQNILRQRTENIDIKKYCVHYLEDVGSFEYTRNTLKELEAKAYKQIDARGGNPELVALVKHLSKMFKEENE
Numbers only, in nM.

chemical-smiles: COc1ccc(NC(=O)c2cccc(-c3nc(NC(P(=O)(O)O)P(=O)(O)O)c4ccsc4n3)c2)cc1
unit: nM
IC50: 75

chemical-smiles: O=P(O)(O)C(Nc1ncnc2sc(-c3ccc(C(F)(F)F)cc3)cc12)P(=O)(O)O
unit: nM
IC50: 1500

Now look at this one.
Recorded IC50 of `O=C(Nc1cccc(-c2nc(NC(P(=O)(O)O)P(=O)(O)O)c3ccsc3n2)c1)c1ccc(F)cc1` , please.
42
